- testSystem: T1, recombinant mouse DLL4 (C-terminally His-tagged extracellular domain, R&D Systems) (mouse, UniProt Q9JI71 27-532)
- T1 construct: extracellular domain; also called rmDLL4; mDLL4
- T1 sequence (Q9JI71 27-532): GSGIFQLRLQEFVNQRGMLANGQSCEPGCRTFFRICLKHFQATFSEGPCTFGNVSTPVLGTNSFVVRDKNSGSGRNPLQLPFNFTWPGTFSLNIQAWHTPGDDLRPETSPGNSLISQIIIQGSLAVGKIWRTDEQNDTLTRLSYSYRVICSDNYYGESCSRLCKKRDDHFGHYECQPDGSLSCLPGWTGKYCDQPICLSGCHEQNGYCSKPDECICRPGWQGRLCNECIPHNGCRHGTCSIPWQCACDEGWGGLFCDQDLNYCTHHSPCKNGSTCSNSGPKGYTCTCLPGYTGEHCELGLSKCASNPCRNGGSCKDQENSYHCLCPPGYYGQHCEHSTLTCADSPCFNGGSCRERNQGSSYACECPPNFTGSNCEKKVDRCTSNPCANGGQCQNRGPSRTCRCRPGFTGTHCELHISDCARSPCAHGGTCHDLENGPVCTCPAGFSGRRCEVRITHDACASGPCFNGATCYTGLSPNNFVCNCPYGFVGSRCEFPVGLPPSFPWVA
- method: SPR (Biacore), rmDLL4
Exercise: for every item that follows, state its recorded pKd.
One number for each entry, as −log10 of the molar value.

| binder | pKd |
| --- | --- |
| DLLBII129E11 (VHH, not shown: small tags and cut ends) VHH: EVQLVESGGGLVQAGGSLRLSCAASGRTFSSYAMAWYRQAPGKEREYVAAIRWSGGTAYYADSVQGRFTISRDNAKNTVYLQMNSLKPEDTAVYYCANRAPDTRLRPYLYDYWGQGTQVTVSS | 8.92 |

For each entry beneath this line, provide reported pKd.
1. DLLBII136C07 (VHH, not shown: small tags and cut ends) VHH: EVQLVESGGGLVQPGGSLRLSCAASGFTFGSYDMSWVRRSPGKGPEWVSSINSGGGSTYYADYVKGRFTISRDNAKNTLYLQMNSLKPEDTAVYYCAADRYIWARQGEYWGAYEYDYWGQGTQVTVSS
2. DLLBII133A09 (VHH, not shown: small tags and cut ends) VHH: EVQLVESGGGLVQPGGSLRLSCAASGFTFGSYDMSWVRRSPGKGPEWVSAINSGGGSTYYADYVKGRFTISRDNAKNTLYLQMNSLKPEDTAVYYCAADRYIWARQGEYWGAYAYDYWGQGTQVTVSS

[8.59, 8.11]
